src = patent US20190241669A1

biological target: Human BCMA (human) (UniProt Q02223); assay: SPR, IgG on chip, huBCMA analyte
The following binders are listed with their measured pKd values.
Please keep in mind that pKd is minus log10 of the molar concentration; only the number is needed.

- binder: "A02_Rd4_0.6nM_C10 (antibody, V domains shown, IgG) VH: EVQLLESGGGLVQPGGSLRLSCAASGFTFSSYAMNWVRQAPGKGLEWVSAISGWGGSLPYADSVKGRFTISRDNSKNTLYLQMNSLRAEDTAVYYCARYWPMDSWGQGTLVTVSS VL: EIVLTQSPGTLSLSPGERATLSCRASQSVSAQYLAWYQQKPGQAPRLLMYDASIRATGIPDRFSGSGSGTDFTLTISRLEPEDFAVYYCQQYQRWPLTFGQGTKVEIK"
  pKd: 9.89
- binder: "C01_Rd4_6nM_C04 (antibody, V domains shown, IgG) VH: EVQLLESGGGLVQPGGSLRLSCAASGFTFSSYPMSWVRQAPGKGLEWVSAIGGSGGSLPYADSVKGRFTISRDNSKNTLYLQMNSLRAEDTAVYYCARYWPMDSWGQGTLVTVSS VL: EIVLTQSPGTLSLSPGERATLSCCSSQSVSSTYLAWYQQKPGQAPRLLIYDASSRAPGIPDRFSGSGSGTDFTLTISRLEPEDFAVYYCQQYSAFPLTFGQGTKVEIK"
  pKd: 8.67

Name the reported pKd value associated with the binder C01_Rd4_6nM_C24 (antibody, V domains shown, IgG) VH: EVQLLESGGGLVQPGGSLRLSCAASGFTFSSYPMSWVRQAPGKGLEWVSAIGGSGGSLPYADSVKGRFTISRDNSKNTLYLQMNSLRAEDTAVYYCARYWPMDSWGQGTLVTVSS VL: EIVLTQSPGTLSLSPGERATLSCRASQSVSPEYLAWYQQKPGQAPRLLIYDASSRAPGIPDRFSGSGSGTDFTLTISRLEPEDFAVYYCQQYSVWPLTFGQGTKVEIK
9.33
